The reader will find reported relative viability values listed item by item below.
- System: LXF-289
- ASSAY PROCEDURE: relative viability (nuclei count vs DMSO), 5 days (fraction); higher = more cells survive
- STUDY CONDITIONS: first compound 20 µM
No unit in the answer, please; the number alone is enough.

{"columns": ["COMPOUND", "SYSTEM UNDER TEST", "OBS VALUE"],
 "data": [
  ["COCC1(CO)C(=O)C2CCN1CC2 (stereo not given) [PRIMA-1MET] + CC(=O)c1c(C)c2cnc(Nc3ccc(N4CCNCC4)cn3)nc2n(C2CCCC2)c1=O [Palbociclib] (partner 0.5 µM)", "LXF-289", 0.602],
  ["COCC1(CO)C(=O)C2CCN1CC2 (stereo not given) [PRIMA-1MET] + CC1(C)CCC(c2ccc(Cl)cc2)=C(CN2CCN(c3ccc(C(=O)NS(=O)(=O)c4ccc(N[C@H](CCN5CCOCC5)CSc5ccccc5)c(S(=O)(=O)C(F)(F)F)c4)cc3)CC2)C1 [Navitoclax] (partner 0.5 µM)", "LXF-289", 0.903],
  ["COCC1(CO)C(=O)C2CCN1CC2 (stereo not given) [PRIMA-1MET] + O=C(CCCCCCC(=O)Nc1ccccc1)NO [Vorinostat] (partner 1 µM)", "LXF-289", 0.745],
  ["COCC1(CO)C(=O)C2CCN1CC2 (stereo not given) [PRIMA-1MET] + CCNC(=O)c1noc(-c2cc(C(C)C)c(O)cc2O)c1-c1ccc(CN2CCOCC2)cc1 [Luminespib] (partner 0.01 µM)", "LXF-289", 0.624]
]}

Consider the record given below.
# relative viability (compound: COCC1(CO)C(=O)C2CCN1CC2 (stereo not given) [PRIMA-1MET] + N=C(N)NC(=N)NCCc1ccccc1 [Phenformin] (partner 250 µM) ) is 0.456

* * *

- System: NCI-H596
- ASSAY PROCEDURE: relative viability (nuclei count vs DMSO), 5 days (fraction); higher = more cells survive
- STUDY CONDITIONS: first compound 0.8 µM
Field: label. Allowed values: MET (relative viability < 0.8) or NOT MET (relative viability >= 0.8).

Below are worked cases with known answers.
{"columns": ["COMPOUND", "LABEL VALUE"],
 "data": [
  ["COc1nc(C)cnc1NS(=O)(=O)c1cccnc1-c1ccc(-c2nnco2)cc1 [Zibotentan] + C[C@@H](Oc1cc(-c2cnn(C3CCNCC3)c2)cnc1N)c1c(Cl)ccc(F)c1Cl [Crizotinib] (partner 1 µM)", "NOT MET"],
  ["O=c1cc(-c2cccc3c2Sc2ccccc2S3)oc(N2CCOCC2)c1 + O=C(CCCCCCC(=O)Nc1ccccc1)NO [Vorinostat] (partner 1 µM)", "MET"],
  ["O=c1cc(-c2cccc3c2Sc2ccccc2S3)oc(N2CCOCC2)c1 + CCNC(=O)c1noc(-c2cc(C(C)C)c(O)cc2O)c1-c1ccc(CN2CCOCC2)cc1 [Luminespib] (partner 0.01 µM)", "MET"],
  ["COc1nc(C)cnc1NS(=O)(=O)c1cccnc1-c1ccc(-c2nnco2)cc1 [Zibotentan] + Cc1cc(Nc2cc(N3CCN(C)CC3)nc(Sc3ccc(NC(=O)C4CC4)cc3)n2)n[nH]1 [Tozasertib] (partner 0.1 µM)", "MET"]
]}

Query :: Lab log: compare recorded relative viability with 0.8; is it strictly lower for O=c1cc(-c2cccc3c2Sc2ccccc2S3)oc(N2CCOCC2)c1 + N=C(N)NC(=N)NCCc1ccccc1 [Phenformin] (partner 250 µM) ?
Result :: NOT MET
